Hi there, I'd appreciate the recorded IC50 for every entry that follows.
Biological target: AHR (Homo sapiens)
Construct: U87 MG glioblastoma cells (ATCC #HTB-14) endogenously expressing AHR; endogenous in cells; host or cells: U87 MG glioblastoma cells (ATCC #HTB-14)
Sequence (P35869 11-848): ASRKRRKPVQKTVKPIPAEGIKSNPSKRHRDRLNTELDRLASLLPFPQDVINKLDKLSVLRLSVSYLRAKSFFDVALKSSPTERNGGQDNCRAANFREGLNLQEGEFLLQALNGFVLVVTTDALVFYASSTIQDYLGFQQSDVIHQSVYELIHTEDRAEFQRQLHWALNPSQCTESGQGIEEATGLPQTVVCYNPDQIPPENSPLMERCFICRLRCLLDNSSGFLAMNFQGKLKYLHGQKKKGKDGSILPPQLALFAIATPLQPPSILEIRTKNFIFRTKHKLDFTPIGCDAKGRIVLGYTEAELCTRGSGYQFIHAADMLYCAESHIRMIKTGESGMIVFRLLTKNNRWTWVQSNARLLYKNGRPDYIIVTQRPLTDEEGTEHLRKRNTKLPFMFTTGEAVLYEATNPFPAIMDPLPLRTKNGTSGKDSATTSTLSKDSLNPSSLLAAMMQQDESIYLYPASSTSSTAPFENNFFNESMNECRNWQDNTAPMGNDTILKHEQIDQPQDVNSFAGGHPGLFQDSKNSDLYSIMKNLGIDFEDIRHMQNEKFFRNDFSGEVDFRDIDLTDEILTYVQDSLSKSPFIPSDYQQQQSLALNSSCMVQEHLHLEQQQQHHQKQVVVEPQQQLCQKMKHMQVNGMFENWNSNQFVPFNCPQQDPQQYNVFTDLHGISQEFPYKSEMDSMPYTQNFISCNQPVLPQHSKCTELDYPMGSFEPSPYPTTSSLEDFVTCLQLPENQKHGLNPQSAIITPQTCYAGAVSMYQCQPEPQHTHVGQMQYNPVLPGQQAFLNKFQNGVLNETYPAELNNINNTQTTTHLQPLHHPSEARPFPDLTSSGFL
Assay: In vitro assay 1: antagonism in human cell line (AHR transactivation, firefly luciferase reporter, kynurenic acid prestimulated)
Format: cell-based
Details: AHR Antagonism Human IC50 [M]
Give bare numbers, in M.

See these solved cases before continuing.
structure-smiles-string: Cn1cc(-c2nc3c4cccc(C#N)c4nc(N[C@@H]4CCCCNC4=O)n3n2)cn1
IC50 [M]: 3.03e-08

structure-smiles-string: COc1cccc(-c2nc3c4ccc(F)cc4nc(N[C@@H]4CCNC4=O)n3n2)c1
IC50 [M]: 5.28e-08

structure-smiles-string: O=C1NCCCC[C@H]1Nc1nc2cccc(C(F)(F)F)c2c2nc(-c3ccc(F)cc3)nn12
IC50 [M]: 2.26e-08

structure-smiles-string: Cn1cc(-c2nc3c4cccc(Cl)c4nc(N[C@@H]4CNCCNC4=O)n3n2)cn1
IC50 [M]: 2.71e-08

structure-smiles-string: CC[C@H](Nc1nc2c(Br)cccc2c2nc(-c3ccc(OC)cc3OC(F)(F)F)nn12)C(N)=O
IC50 [M]: 3.31e-07

Turning now to a further record.
Incoming: Returns the measured IC50 for the input compound. Input: COc1ccc(-c2nc3c4ccccc4nc(N[C@@H]4CCCCNC4=O)n3n2)cc1C
Outgoing: 6.68e-10

###

Hi there, I'd appreciate the recorded IC50 for every entry that follows.
target: AHR (Homo sapiens); construct: U87 MG glioblastoma cells (ATCC #HTB-14) endogenously expressing AHR; endogenous in cells; host or cells: U87 MG glioblastoma cells (ATCC #HTB-14); test: In vitro assay 1: antagonism in human cell line (AHR transactivation, firefly luciferase reporter, kynurenic acid prestimulated); type: cell-based; conditions: AHR Antagonism Human IC50 [M]
Entry format: amount then unit.

See these solved cases before continuing.
structure-smiles-string: CC(C)n1cc(-c2nc3c4cccc(OC(F)(F)F)c4nc(N[C@@H]4CCCCNC4=O)n3n2)cn1
result: 7.68e-09 M

structure-smiles-string: CCc1noc(-c2nc3c4ccccc4nc(N[C@@H]4CCCCNC4=O)n3n2)n1
result: 2.15e-08 M

structure-smiles-string: COc1cccc(-c2nc3c4ccccc4nc(N[C@H](Cc4ccccc4)C(N)=O)n3n2)c1
result: 4.54e-09 M

structure-smiles-string: CCn1cc(-c2nc3c4cccc(OC)c4nc(N[C@@H]4CCCCNC4=O)n3n2)cn1
result: 7.97e-08 M

structure-smiles-string: O=C1NCCCC[C@@H]1Nc1nc2ccccc2c2nc(-c3ccc(Cl)cc3OC(F)F)nn12
result: 1.47e-08 M

Quick request: IC50 for each listed item, please.
1. Cn1cc(-c2nc3c4c(Cl)cccc4nc(N[C@@H]4CNCCNC4=O)n3n2)cn1
2. CC[C@@H](Nc1nc2ccccc2c2nc(-c3cccc(S(C)(=O)=O)c3)nn12)C(N)=O

Outgoing:
1: 1.11e-06 M; 2: 6.25e-07 M
